Tested on: γ-secretase
Assay: Notch target gene reporter (Hes1-Luc / NotchΔE) luciferase assay in stable MEFs
Type: cell-based, mouse
Conditions: L435F KI/+ stable cells, clone A23; FIG. 4

| SMILES STR | luciferase activity |
| --- | --- |
| COc1ccc2c(c1)c(CC(=O)O)c(C)n2C(=O)c1ccc(Cl)cc1 | lesser effect |
| C[C@@H](C(=O)O)c1ccc(-c2ccccc2)c(F)c1 | lesser effect |
